The values you see were collected from ChEMBL document CHEMBL1154353.

- protocol description: Negative inotropic activity in guinea pig left atrium assessed as decrease in atrial tension
- Type: functional, tissue-based
- reported conditions: Cavia porcellus, Cardiac atrium
recorded endpoint: pEC50
Give only the number. pEC50 is defined as minus log10 of concentration in molar units.

Problem: Given the molecule "O=S(=O)(c1ccc(Cl)cc1)N1CCC[C@@H]1c1cccs1" , what is its reported pEC50?
Result: 6.64

Problem: I am curious: what pEC50 value has been reported for "COc1ccc([C@@H]2Sc3ccccc3N(CCN(C)C)C(=O)[C@@H]2OC(C)=O)cc1" ?
Result: 6.10

Problem: Which value of pEC50 has been reported for "O=S(=O)(c1ccc(Cl)cc1)N1CCC[C@H]1c1cccs1" in the records?
Result: 6.35

Problem: Given "CCO[C@@]1(c2ccc(Br)cc2)SC=C(C)n2c1noc2=O" , state its recorded pEC50.
Result: 7.15

====

- protocol description: Negative chronotropic activity in guinea pig right atrium assessed as decrease in atrial rate at 100 uM relative to control
- Type: functional, Cavia porcellus, Cardiac atrium
- Design: scale not given: the % may be the effect or the level left
Assignment: determine reported Activity for the given compounds.
Answer format: numeric, % implied, no suffix.

Problem: I would be grateful if you could share the reported Activity for O=S(=O)(c1ccc(Cl)cc1)N1CCCC1c1cccs1 (racemic) .
Result: 4

Problem: May I ask what Activity has been recorded for "C=CCN(c1ccccc1)S(=O)(=O)c1ccc(Cl)cc1" ?
Result: 5

Problem: Find the recorded Activity belonging to "CCO[C@@]1(c2ccc(Br)cc2)SC=C(C)n2c1noc2=O" and report it.
Result: 16

Problem: Dear colleague, I am looking for the recorded Activity of the following compound: "CSC1=NCCCN1S(=O)(=O)c1ccc(Cl)cc1"
Result: 5

====

- Test system: Aorta
- protocol description: Vasorelaxant activity in 80 mM K+-depolarized guinea pig thoracic aortic strip assessed as inhibition of calcium-induced contraction
- Assay type: functional, tissue-based
- reported conditions: Cavia porcellus
recorded endpoint: IC50
Phrase the answer as number then unit, nothing more needed.

Problem: Record lookup: for Aorta, what IC50 belongs to "O=S(=O)(c1ccc(Cl)cc1)N1CCC[C@H]1c1cccs1" ?
Result: 5.16 µM

Problem: Look up IC50 with Aorta for this compound: "C=CCN(c1ccccc1)S(=O)(=O)c1ccc(Cl)cc1"
Result: 17.7 µM

Problem: Which IC50 is reported with Aorta for this entry: COc1ccc([C@@H]2Sc3ccccc3N(CCN(C)C)C(=O)[C@@H]2OC(C)=O)cc1 [DILTIAZEM] ?
Result: 2.6 µM
